Tgt: RARγ (Homo sapiens, UniProt P13631)
Sequence (P13631 whole entry, species assumed): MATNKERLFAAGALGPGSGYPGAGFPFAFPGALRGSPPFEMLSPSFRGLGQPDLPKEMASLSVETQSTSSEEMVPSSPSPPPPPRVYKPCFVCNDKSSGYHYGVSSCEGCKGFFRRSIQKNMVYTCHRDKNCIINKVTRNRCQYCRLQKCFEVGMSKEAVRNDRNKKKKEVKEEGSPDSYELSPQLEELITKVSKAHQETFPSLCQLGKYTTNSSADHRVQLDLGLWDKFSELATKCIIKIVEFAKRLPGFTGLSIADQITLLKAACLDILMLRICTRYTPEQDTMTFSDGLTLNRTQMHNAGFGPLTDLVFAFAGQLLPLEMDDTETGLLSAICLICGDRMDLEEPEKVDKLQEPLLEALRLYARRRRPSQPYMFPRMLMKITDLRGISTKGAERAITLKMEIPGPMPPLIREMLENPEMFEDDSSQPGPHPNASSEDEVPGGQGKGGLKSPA
Experiment Summary: Competition binding assay, radiolabeled all-trans-retinoic acid, RARγ
pKd: −log10 of the molar value.
Readout Type: pKd

{"columns": ["Structure Smiles String", "Endpoint Result"],
 "data": [
  ["CC1(C)CCC(C)(C)c2cc(/C(=C/c3ccc(C(=O)C(=O)O)cc3)[Si](C)(C)C)ccc21", 5.23]
]}

###

Tgt: RXRα (Homo sapiens)
Construct: encoding the full length receptors RARα, RARβ, RARγ, RXRα, RXRβ, and RXRγ
Sequence (P19793 whole entry): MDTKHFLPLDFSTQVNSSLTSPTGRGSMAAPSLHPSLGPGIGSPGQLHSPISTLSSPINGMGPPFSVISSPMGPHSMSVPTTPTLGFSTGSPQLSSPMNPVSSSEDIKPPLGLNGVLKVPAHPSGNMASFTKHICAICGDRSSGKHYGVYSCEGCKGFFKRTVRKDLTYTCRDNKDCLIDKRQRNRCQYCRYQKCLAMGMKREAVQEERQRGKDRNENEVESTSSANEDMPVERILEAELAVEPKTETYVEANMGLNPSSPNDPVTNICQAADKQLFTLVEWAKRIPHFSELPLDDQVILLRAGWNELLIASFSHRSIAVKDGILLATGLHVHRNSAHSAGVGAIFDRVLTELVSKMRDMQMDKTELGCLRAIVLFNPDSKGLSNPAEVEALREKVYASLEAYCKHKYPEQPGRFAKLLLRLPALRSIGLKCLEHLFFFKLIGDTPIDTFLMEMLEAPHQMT
Experiment Summary: Transactivation assay, luciferase reporter, full length RXRα
Test Conditions: concentration giving 50% maximal transcription of the reporter gene; read-out: Trans (EC50) RXRα
pEC50: −log10 of the molar value.

{"columns": ["Structure Smiles String", "pEC50"],
 "data": [
  ["Cc1cc2c(cc1/C(=C/c1ccc(C(=O)C(=O)O)cc1)[Si](C)(C)C)C(C)(C)CCC2(C)C", 6.00],
  ["CC1(C)CC(C)(C)c2cc(/C(=C/c3ccc(C(=O)C(=O)O)cc3)[Si](C)(C)C)ccc2O1", 5.51]
]}

###

Tgt: RARα (Homo sapiens)
Sequence (P10276 whole entry, species assumed): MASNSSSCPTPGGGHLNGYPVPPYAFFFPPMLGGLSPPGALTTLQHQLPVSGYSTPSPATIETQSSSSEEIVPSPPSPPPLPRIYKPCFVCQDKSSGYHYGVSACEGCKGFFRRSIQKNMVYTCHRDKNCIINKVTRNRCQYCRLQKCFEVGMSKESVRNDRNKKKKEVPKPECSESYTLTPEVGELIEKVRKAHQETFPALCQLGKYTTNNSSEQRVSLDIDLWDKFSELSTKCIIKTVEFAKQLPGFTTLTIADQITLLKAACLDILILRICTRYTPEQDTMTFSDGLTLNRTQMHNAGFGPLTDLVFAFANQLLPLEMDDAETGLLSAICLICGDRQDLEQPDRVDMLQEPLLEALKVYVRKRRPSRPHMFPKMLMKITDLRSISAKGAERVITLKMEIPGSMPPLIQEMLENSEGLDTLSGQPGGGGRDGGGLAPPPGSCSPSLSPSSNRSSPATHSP
Experiment Summary: Transactivation assay, luciferase reporter, full length RARα
Test Conditions: concentration giving 50% maximal transcription of the reporter gene; read-out: Trans (EC50) RARα
pEC50: −log10 of the molar value.
Reported pEC50 by item:

{"columns": ["Structure Smiles String", "pEC50"],
 "data": [
  ["CC1(C)CCC(C)(C)c2cc(/C(=C/c3ccc(C(=O)O)s3)[Si](C)(C)C)ccc21", 6.46],
  ["Cc1cc2c(cc1/C(=C/c1ccc(C(=O)C(=O)O)cc1)[Si](C)(C)C)C(C)(C)CCC2(C)C", 6.26]
]}

###

Tgt: RXRγ (Homo sapiens, UniProt P48443)
Construct: encoding the full length receptors RARα, RARβ, RARγ, RXRα, RXRβ, and RXRγ
Sequence (P48443 whole entry): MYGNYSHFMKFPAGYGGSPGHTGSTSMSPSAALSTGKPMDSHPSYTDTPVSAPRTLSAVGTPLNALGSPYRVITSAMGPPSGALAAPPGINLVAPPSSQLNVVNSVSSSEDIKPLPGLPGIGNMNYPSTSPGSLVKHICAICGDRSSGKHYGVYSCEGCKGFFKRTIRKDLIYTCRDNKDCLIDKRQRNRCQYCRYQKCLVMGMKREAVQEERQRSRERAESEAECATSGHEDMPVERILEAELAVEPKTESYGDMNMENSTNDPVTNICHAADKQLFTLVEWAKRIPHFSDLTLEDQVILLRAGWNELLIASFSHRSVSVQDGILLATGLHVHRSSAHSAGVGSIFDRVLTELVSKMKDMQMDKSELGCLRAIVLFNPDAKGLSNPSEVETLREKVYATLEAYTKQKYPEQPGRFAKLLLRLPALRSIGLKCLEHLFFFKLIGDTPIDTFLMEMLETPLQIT
Experiment Summary: Transactivation assay, luciferase reporter, full length RXRγ
Test Conditions: concentration giving 50% maximal transcription of the reporter gene; read-out: Trans (EC50) RXRγ
pEC50: −log10 of the molar value.
pEC50 overview
Readout Type: pEC50

{"columns": ["Structure Smiles String", "Endpoint Result"],
 "data": [
  ["Cc1cc2c(cc1/C(=C/c1ccc(C(=O)C(=O)O)cc1)[Si](C)(C)C)C(C)(C)CCC2(C)C", 6.02],
  ["CC1(C)CC(C)(C)c2cc(/C(=C/c3ccc(C(=O)C(=O)O)cc3)[Si](C)(C)C)ccc2O1", 5.54]
]}
